- targetSystem: human recombinant BACE1 (Homo sapiens (Human), UniProt P56817)
- Sequence (P56817 46-501): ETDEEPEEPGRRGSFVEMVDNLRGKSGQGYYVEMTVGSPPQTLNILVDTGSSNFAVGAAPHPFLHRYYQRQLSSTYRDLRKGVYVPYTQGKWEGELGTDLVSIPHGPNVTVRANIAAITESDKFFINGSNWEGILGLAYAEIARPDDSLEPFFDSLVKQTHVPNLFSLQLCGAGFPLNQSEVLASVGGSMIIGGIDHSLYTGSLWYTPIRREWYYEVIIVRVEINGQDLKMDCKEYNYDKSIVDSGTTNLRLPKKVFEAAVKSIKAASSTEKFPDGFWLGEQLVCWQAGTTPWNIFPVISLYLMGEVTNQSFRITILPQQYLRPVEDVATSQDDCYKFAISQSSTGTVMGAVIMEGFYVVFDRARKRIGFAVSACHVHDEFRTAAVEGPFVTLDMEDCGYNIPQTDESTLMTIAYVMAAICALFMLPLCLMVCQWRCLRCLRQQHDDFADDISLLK
- protocol: In vitro enzymatic BACE1 FRET assay
- Format: biochemical
- particulars: read-out: IC50 IP (μM) BACE1 enzyme
measurementKind: log10(IC50) (log10 of the value in µM)

C#CCOc1cnc(C(=O)Nc2cc(F)c(F)c([C@@]3(C)N=C(N)S[C@@]4(CN)C[C@H]43)c2)cn1 [Example 981]	-2.50
C#CCOc1cnc(C(=O)Nc2cnc(F)c([C@@]3(C)N=C(N)S[C@@]4(CF)C[C@H]43)c2)cn1 [Example 606]	-3.49
C#CCOc1cnc(C(=O)Nc2ccc(F)c([C@@]3(CF)N=C(N)S[C@@]4(COC(C)C)C[C@H]43)c2)cn1 [Example 955]	-3.09
C[C@]1(c2cc(NC(=O)c3ccc(Cl)cn3)cnc2F)N=C(N)S[C@@]2(C(F)F)C[C@@H]12 [Example 655]	-2.34
C[C@]1(c2cc(NC(=O)c3ccc(Cl)cn3)cc(F)c2F)N=C(N)S[C@@]2(C(=O)N3CCCC3)C[C@H]21 [Example 935]	-3.30
C[C@H](Oc1cnc2c(Nc3cc(F)c(F)c([C@@]4(C)N=C(N)S[C@@]5(C(F)F)C[C@@H]45)c3)nccc2n1)c1ncco1 [Example 892]	-2.56
C[C@]1(c2cc(NC(=O)c3ccc(Cl)cn3)ccc2F)N=C(N)S[C@@]2(C(F)F)C[C@@H]12 [Example 818]	-3.23
C#CCOc1cnc2c(Nc3cnc(F)c([C@@]4(C)N=C(N)S[C@@]5([C@@H](O)C(F)(F)F)C[C@H]54)c3)nccc2n1 [Example 660]	-2.88
